system: Bacillus subtilis (ATCC strain 19659); experiment: Disc diffusion assay; type: cell-based; conditions: Bacillus subtilis, ATCC19659; disc assay dosed at 60 μg/disc, 24 h; read-out: BS activity: width of zone of growth inhibition
Assay Readout: zone of inhibition at 60 µg/disc (mm)
# output: bare number, implied unit mm

q: If you can, please state the reported zone of inhibition at 60 µg/disc value of `CC1(C)C(=O)C(C2(C=O)CCCCC2)=C(O)C(C)(C)C1=O` .
a: 0

q: If you can, please state the reported zone of inhibition at 60 µg/disc value of `CCCCCCCCCCCCCCCC(=O)C1=C(O)C(C)(C)C(=O)C(C)(C)C1=O` .
a: 0

q: If you can, please state the reported zone of inhibition at 60 µg/disc value of `CCCCCCCCCCCC(=O)C1=C(O)C(C)(C)C(=O)C(C)(C)C1=O` .
a: 3

q: If you can, please state the reported zone of inhibition at 60 µg/disc value of CCCCCCCCCCCC(=O)C1=C(O)C(C)(C)C(=O)C(C)(CC=C(C)C)C1=O (stereo not shown) .
a: 0
